Test system: mTORC1 over mTORC2
Assay Explanation: mTORC1 over mTORC2 selectivity by comparing pS6K1 and pAKT IC50
Format: cell-based
Setup Conditions: by comparing pS6K1 and pAKT IC50, 90 min
Assay Metric: mTORC1 selective @ 90 min

Compound: CO[C@@H]1C[C@H](C[C@@H](C)[C@@H]2CC(=O)[C@H](C)/C=C(\C)[C@@H](O)[C@@H](OC)C(=O)[C@H](C)C[C@H](C)/C=C/C=C/C=C(\C)[C@@H](OC[C@@H]3COCCO3)C[C@@H]3CC[C@@H](C)[C@@](O)(O3)C(=O)C(=O)N3CCCC[C@H]3C(=O)O2)CC[C@H]1OCCO
System Tested: mTORC1 over mTORC2
Reported Result: Yes
//
Compound: CO[C@@H]1C[C@H](C[C@@H](C)[C@@H]2CC(=O)[C@H](C)/C=C(\C)[C@@H](O)[C@@H](OC)C(=O)[C@H](C)C[C@H](C)/C=C/C=C/C=C(\C)[C@H](OCCOC3COC3)C[C@@H]3CC[C@@H](C)[C@@](O)(O3)C(=O)C(=O)N3CCCC[C@H]3C(=O)O2)CC[C@H]1OC(=O)N(C)CCN1CCOCC1
System Tested: mTORC1 over mTORC2
Reported Result: Yes
//
Compound: CO[C@@H]1C[C@H](C[C@@H](C)[C@@H]2CC(=O)[C@H](C)/C=C(\C)[C@@H](O)[C@@H](OC)C(=O)[C@H](C)C[C@H](C)/C=C/C=C/C=C(\C)[C@@H](OCC3COCCO3)C[C@@H]3CC[C@@H](C)[C@@](O)(O3)C(=O)C(=O)N3CCCC[C@H]3C(=O)O2)CC[C@H]1OCCCO (stereo partly drawn)
System Tested: mTORC1 over mTORC2
Reported Result: Yes
